I'd appreciate it if you could supply viability, T/C values for the items below.
- System: 556581-035-R-J1-PDC complex spheroid growth
- assay: Anticancer human tumor 556581-035-R-J1-PDC patient-derived ovarian carcinoma cell line growth inhibition [Asc]
- condition label: second compound 0.316 µM; first compound 0.0316 µM; stronger effect = lower value
Give bare numbers, in %.

Consider the reported viability, T/C for these compounds:
QUERY: Return viability, T/C measured with 556581-035-R-J1-PDC complex spheroid growth given this compound: Cn1ncnc1[C@H]1c2n[nH]c(=O)c3cc(F)cc(c23)N[C@@H]1c1ccc(F)cc1 + Cc1c(S(C)(=O)=O)c(-c2cc(F)cc(N3CCN(c4ccc(NS(=O)(=O)c5ccc(NC(CCN6CCC(C(=O)OCCCP(=O)(O)O)CC6)CSc6ccccc6)c(S(=O)(=O)C(F)(F)F)c5)cc4)CC3)c2)c(-c2ccc(Cl)cc2)n1C(C)C
RESULT: 79.9

QUERY: Next up: C=C(F)C(=O)N1CCN(c2nc(OCC3CCCN3C)nc3c2CCN(c2cccc4cccc(Cl)c24)C3)CC1CC#N (centres undefined) + Cc1c(S(C)(=O)=O)c(-c2cc(F)cc(N3CCN(c4ccc(NS(=O)(=O)c5ccc(NC(CCN6CCC(C(=O)OCCCP(=O)(O)O)CC6)CSc6ccccc6)c(S(=O)(=O)C(F)(F)F)c5)cc4)CC3)c2)c(-c2ccc(Cl)cc2)n1C(C)C
RESULT: 69.3

QUERY: Lookup CCN1CCN(Cc2ccc(Nc3ncc(F)c(-c4cc(F)c5nc(C)n(C(C)C)c5c4)n3)nc2)CC1 + CNC(C)C(=O)NC1CN(S(=O)(=O)c2cccc(S(=O)(=O)N3CCC4CCC(C(=O)NC(c5ccccc5)c5ccccc5)N4C(=O)C(NC(=O)C(C)NC)C3)c2)CCC2CCC(C(=O)NC(c3ccccc3)c3ccccc3)N2C1=O
RESULT: 86.5

// below: viability, T/C requested for another compound
QUERY: State its viability, T/C on 556581-035-R-J1-PDC complex spheroid growth: COc1c(OCCCN2CCOCC2)ccc2c3n(c(=NC(=O)c4cnc(N)nc4)nc12)CCN3 + Cc1c(S(C)(=O)=O)c(-c2cc(F)cc(N3CCN(c4ccc(NS(=O)(=O)c5ccc(NC(CCN6CCC(C(=O)OCCCP(=O)(O)O)CC6)CSc6ccccc6)c(S(=O)(=O)C(F)(F)F)c5)cc4)CC3)c2)c(-c2ccc(Cl)cc2)n1C(C)C
RESULT: 44.4

###

- Tested on: 556581-035-R-J1-PDC complex spheroid growth
- assay: Anticancer human tumor 556581-035-R-J1-PDC cell line growth inhibition [Asc];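 further: spheroids exposed to agents for 7 days before viability read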
- condition label: second compound 3.16 µM; first compound 1 µM; stronger effect = lower value
- Description: Multicellular complex tumor spheroid response to apoptosis pathway targeting inhibitors Alrizomadlin, Pelcitoclax, and Dasminapant in combination with a variety of drugs and investigational agents in selected tumor cell lines […] Compounds. […] If the clinical Cmax for an agent had not been determined, the highest concentration tested was 10 microM. […]
Hi there, I'd appreciate the recorded viability, T/C for every entry that follows.
Give bare numbers, in %.

Reference set (2 entries):
QUERY: May I ask what viability, T/C has been recorded for CNC(C)C(=O)NC1CN(S(=O)(=O)c2cccc(S(=O)(=O)N3CCC4CCC(C(=O)NC(c5ccccc5)c5ccccc5)N4C(=O)C(NC(=O)C(C)NC)C3)c2)CCC2CCC(C(=O)NC(c3ccccc3)c3ccccc3)N2C1=O (stereo not drawn) + Cc1c(S(C)(=O)=O)c(-c2cc(F)cc(N3CCN(c4ccc(NS(=O)(=O)c5ccc(NC(CCN6CCC(C(=O)OCCCP(=O)(O)O)CC6)CSc6ccccc6)c(S(=O)(=O)C(F)(F)F)c5)cc4)CC3)c2)c(-c2ccc(Cl)cc2)n1C(C)C ?
RESULT: 24.5

QUERY: And C#Cc1c(F)ccc2cc(O)cc(-c3ncc4c(N5CC6CCC(C5)N6)nc(OCC56CCCN5CC(F)C6)nc4c3F)c12 (stereo not drawn) + Cc1c(S(C)(=O)=O)c(-c2cc(F)cc(N3CCN(c4ccc(NS(=O)(=O)c5ccc(NC(CCN6CCC(C(=O)OCCCP(=O)(O)O)CC6)CSc6ccccc6)c(S(=O)(=O)C(F)(F)F)c5)cc4)CC3)c2)c(-c2ccc(Cl)cc2)n1C(C)C ?
RESULT: 60.7

Here is another compound to look at.
QUERY: I am curious: what viability, T/C value has been reported for CCN1CCN(Cc2ccc(Nc3ncc(F)c(-c4cc(F)c5nc(C)n(C(C)C)c5c4)n3)nc2)CC1 + Cc1c(S(C)(=O)=O)c(-c2cc(F)cc(N3CCN(c4ccc(NS(=O)(=O)c5ccc(NC(CCN6CCC(C(=O)OCCCP(=O)(O)O)CC6)CSc6ccccc6)c(S(=O)(=O)C(F)(F)F)c5)cc4)CC3)c2)c(-c2ccc(Cl)cc2)n1C(C)C ?
RESULT: 45.5

###

Answer each item with its documented viability, T/C.
- System: 556581-035-R-J1-PDC complex spheroid growth
- assay: Anticancer human tumor 556581-035-R-J1-PDC cell line growth inhibition [Asc];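 further: spheroids exposed to agents for 7 days before viability read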
- condition label: second compound 3 µM; first compound 0.00316 µM; stronger effect = lower value
- Source text: Multicellular complex tumor spheroid response to apoptosis pathway targeting inhibitors Alrizomadlin, Pelcitoclax, and Dasminapant in combination with a variety of drugs and investigational agents in selected tumor cell lines […] Compounds. […] If the clinical Cmax for an agent had not been determined, the highest concentration tested was 10 microM. […]
Answers are plain numbers, in %.

Solved cases (5 shown):
QUERY: Entry O=C(c1ccc(F)c(F)c1Nc1ccc(I)cc1F)N1CC(O)([C@@H]2CCCCN2)C1 + CCN1C(C(=O)NC23CCC(C(=O)O)(CC2)CC3)C(c2cccc(Cl)c2F)C2(C(=O)Nc3cc(Cl)ccc32)C12CCCCC2 : reported viability, T/C = ?
RESULT: 99.9

QUERY: Also, CCN1CCN(Cc2ccc(Nc3ncc(F)c(-c4cc(F)c5nc(C)n(C(C)C)c5c4)n3)nc2)CC1 + CCN1C(C(=O)NC23CCC(C(=O)O)(CC2)CC3)C(c2cccc(Cl)c2F)C2(C(=O)Nc3cc(Cl)ccc32)C12CCCCC2 please.
RESULT: 81.7

QUERY: Here is the next compound: NC1CCC(NC2CC2c2ccccc2)CC1 (stereo unspecified) + CCN1C(C(=O)NC23CCC(C(=O)O)(CC2)CC3)C(c2cccc(Cl)c2F)C2(C(=O)Nc3cc(Cl)ccc32)C12CCCCC2
RESULT: 89.1

QUERY: Try this compound too: COc1c(OCCCN2CCOCC2)ccc2c3n(c(=NC(=O)c4cnc(N)nc4)nc12)CCN3 + CCN1C(C(=O)NC23CCC(C(=O)O)(CC2)CC3)C(c2cccc(Cl)c2F)C2(C(=O)Nc3cc(Cl)ccc32)C12CCCCC2
RESULT: 62.2

QUERY: Quick one: Cn1ncnc1[C@H]1c2n[nH]c(=O)c3cc(F)cc(c23)N[C@@H]1c1ccc(F)cc1 + CCN1C(C(=O)NC23CCC(C(=O)O)(CC2)CC3)C(c2cccc(Cl)c2F)C2(C(=O)Nc3cc(Cl)ccc32)C12CCCCC2
RESULT: 78.7

# evaluate next
QUERY: Give its viability, T/C value. Item: CNC(C)C(=O)NC1CN(S(=O)(=O)c2cccc(S(=O)(=O)N3CCC4CCC(C(=O)NC(c5ccccc5)c5ccccc5)N4C(=O)C(NC(=O)C(C)NC)C3)c2)CCC2CCC(C(=O)NC(c3ccccc3)c3ccccc3)N2C1=O (stereo unspecified) + CCN1C(C(=O)NC23CCC(C(=O)O)(CC2)CC3)C(c2cccc(Cl)c2F)C2(C(=O)Nc3cc(Cl)ccc32)C12CCCCC2
RESULT: 105

###

Please respond with reported viability, T/C for every item in the list.
- Test system: 556581-035-R-J1-PDC complex spheroid growth
- assay: Anticancer human tumor 556581-035-R-J1-PDC cell line growth inhibition [Asc];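 further: spheroids exposed to agents for 7 days before viability read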
- condition label: second compound 0.0949 µM; first compound 1 µM; stronger effect = lower value
Numbers only, in %.

The following molecules have reported results that may help.
QUERY: Form field: reported viability, T/C of CCN1CCN(Cc2ccc(Nc3ncc(F)c(-c4cc(F)c5nc(C)n(C(C)C)c5c4)n3)nc2)CC1 + CCN1C(C(=O)NC23CCC(C(=O)O)(CC2)CC3)C(c2cccc(Cl)c2F)C2(C(=O)Nc3cc(Cl)ccc32)C12CCCCC2
RESULT: 87.2

QUERY: Consider next the molecule CNC(C)C(=O)NC1CN(S(=O)(=O)c2cccc(S(=O)(=O)N3CCC4CCC(C(=O)NC(c5ccccc5)c5ccccc5)N4C(=O)C(NC(=O)C(C)NC)C3)c2)CCC2CCC(C(=O)NC(c3ccccc3)c3ccccc3)N2C1=O (centres undefined) + CCN1C(C(=O)NC23CCC(C(=O)O)(CC2)CC3)C(c2cccc(Cl)c2F)C2(C(=O)Nc3cc(Cl)ccc32)C12CCCCC2 in the same way.
RESULT: 60.5

QUERY: Cool, now COc1c(OCCCN2CCOCC2)ccc2c3n(c(=NC(=O)c4cnc(N)nc4)nc12)CCN3 + CCN1C(C(=O)NC23CCC(C(=O)O)(CC2)CC3)C(c2cccc(Cl)c2F)C2(C(=O)Nc3cc(Cl)ccc32)C12CCCCC2
RESULT: 13.5

Now consider a different molecule.
QUERY: Please give the measured viability, T/C for this molecule: O=C(c1cc(Cc2n[nH]c(=O)c3ccccc23)ccc1F)N1CCN(C(=O)C2CC2)CC1 + CCN1C(C(=O)NC23CCC(C(=O)O)(CC2)CC3)C(c2cccc(Cl)c2F)C2(C(=O)Nc3cc(Cl)ccc32)C12CCCCC2
RESULT: 93.7
